# studyTarget: T1, "Non-linked" human IL-23 (human p40 coexpressed in 293T cells with human p19:FLAG-tag peptide) (human, UniProt P29460 23-328)
# T1 sequence 1: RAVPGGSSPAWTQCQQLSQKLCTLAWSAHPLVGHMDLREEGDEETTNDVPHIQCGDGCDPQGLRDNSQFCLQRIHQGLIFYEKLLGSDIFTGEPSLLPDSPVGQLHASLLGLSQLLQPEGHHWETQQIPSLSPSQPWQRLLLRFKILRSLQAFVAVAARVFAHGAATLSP
# T1 sequence 2: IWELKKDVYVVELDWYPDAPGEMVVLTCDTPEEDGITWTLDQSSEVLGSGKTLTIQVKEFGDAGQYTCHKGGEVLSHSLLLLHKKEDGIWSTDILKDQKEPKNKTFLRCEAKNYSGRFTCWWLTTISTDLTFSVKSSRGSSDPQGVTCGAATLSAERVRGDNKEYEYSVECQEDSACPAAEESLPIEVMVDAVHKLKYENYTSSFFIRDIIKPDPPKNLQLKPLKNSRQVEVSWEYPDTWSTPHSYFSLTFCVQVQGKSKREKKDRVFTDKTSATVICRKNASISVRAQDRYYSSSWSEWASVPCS
# experimentSummary: cell-based or functional assay
attributeMeasured: IC50 (pM), blocking of Ba/F3 cell proliferation
Express the result in pM but write the number alone.

Qu. What IC50 (pM), blocking of Ba/F3 cell proliferation value was documented for this binder, mouse anti-human IL-23p19 antibody 3D7 (antibody, V domains shown, also called m3D7) VH: QVQLQQSGPELVKPGASVKISCKASGYSFTSYYIHWVKQRPGQGLEWIGWIFPGSGNTKYNEKFKGKATLTADTSSTTAYMQLSSLTSEASAVYFCAREGLHYFGLYAMDYWGHGTSVTVSS VL: DIQMTQTTSSLSASLGDRVTISCSASQGISNYLNWFQQKPDGTVKLLIYYTSSLHSGVPSRFSGSGSGTDYSLTISNLEPEDIATYYCQQYSKLPYTFGGGTKLEIKR ?
Ans. 37

Qu. Any idea what its IC50 (pM), blocking of Ba/F3 cell proliferation is? The binder is mouse anti-human IL-23p19 antibody 16F7 (antibody, V domains shown) VH: EVQLVESGGDLVKPGGSLKLSCAASGFIFNSYGMSWVRQTPDKRLEWVATISSGGRNTYYPDSVKGRFTISRDNAKNTLYLQMSSLKSEDTAMYYCARQGGYEGYVDVWGIGTTVTVSS VL: DIVMTQSHRFMSTSVGDRVSITCKASQDVSSAVAWYQQKPGQSPNLLIYSASFRNTGVPDRFTGSGSGTDFTFTISGVQAEDLAVYYCQQHHSTPLTFGAGTKLELKR
Ans. 141
